Measured on: human β3-adrenoreceptor (Homo sapiens)
Construct: expressed in transfected cells; host or cells: CHO cells
Assay: cAMP radioimmunoassay in CHO cells expressing human β3-adrenoreceptor
Assay type: cell-based
Measurement setup: maximal response relative to standard reference agonist (isoproterenol = 100%), na = not active, read-out: h-β3 cAMP Max %
# if value of Emax reaches 90%, tag true; if it stays below, tag false

COc1ccc(CC2NCCc3cc(O)c(NS(C)(=O)=O)cc32)cc1OC (stereo not shown)    false
COc1c(Br)cc(CC2NCCc3cc(O)c(NS(=O)(=O)c4ccc(C)cc4)cc32)cc1Br (stereo not shown)    true
CS(=O)(=O)Nc1cc2c(cc1O)CCNC2Cc1ccc(F)c(F)c1 (stereo not shown)    false
COc1ccc(CC2NCCc3cc(O)c(NS(C)(=O)=O)cc32)cc1 (stereo not shown)    false
CS(=O)(=O)Nc1cc2c(cc1N)CCNC2Cc1ccc(Cl)c(Cl)c1 (stereo not shown)    false

----------
Measured on: human β3-adrenoreceptor (Homo sapiens, UniProt P13945)
Construct: expressed in transfected cells; host or cells: CHO cells
Sequence (P13945 whole entry): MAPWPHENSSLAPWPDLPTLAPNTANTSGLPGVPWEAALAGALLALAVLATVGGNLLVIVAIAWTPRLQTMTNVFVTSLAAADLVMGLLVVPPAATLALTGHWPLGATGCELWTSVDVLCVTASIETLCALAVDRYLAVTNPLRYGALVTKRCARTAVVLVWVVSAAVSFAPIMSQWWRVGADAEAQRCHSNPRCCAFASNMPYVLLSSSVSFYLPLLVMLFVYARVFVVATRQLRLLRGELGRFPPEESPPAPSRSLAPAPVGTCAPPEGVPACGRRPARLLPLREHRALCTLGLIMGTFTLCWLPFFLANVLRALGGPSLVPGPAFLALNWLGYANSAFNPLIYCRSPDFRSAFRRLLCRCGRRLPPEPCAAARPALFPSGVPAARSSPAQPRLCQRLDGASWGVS
Assay: cAMP radioimmunoassay in CHO cells expressing human β3-adrenoreceptor
Type: cell-based
Measurement setup: maximal response relative to standard reference agonist (isoproterenol = 100%), na = not active, read-out: h-β3 cAMP Max %
Emax values, listed per item
Observable: Emax (%)

COc1c(Br)cc(CC2NCCc3cc(O)c(NS(=O)(=O)c4ccc(F)cc4)cc32)cc1Br (stereo not drawn)    90.4
COc1c(Br)cc(CC2NCCc3cc(O)c(NS(=O)(=O)c4ccccc4)cc32)cc1Br (stereo not drawn)    88.2
COc1c(I)cc(CC2NCCc3cc(O)c(NS(=O)(=O)c4ccc(C)cc4)cc32)cc1I (stereo not drawn)    91

----------
Measured on: human β3-adrenoreceptor (Homo sapiens)
Assay: cAMP radioimmunoassay in CHO cells expressing human β3-adrenoreceptor
Measurement setup: concentration giving 50% of the drug's maximum cAMP response, na = not active at highest concentration used, read-out: h-β3 cAMP EC50
EC50 values, listed per item
Observable: EC50 (nM)

CS(=O)(=O)Nc1cc2c(cc1O)CCNC2Cc1ccc(F)c(F)c1 (stereo not drawn)    24.4
COc1c(Br)cc(CC2NCCc3cc(O)c(NS(=O)(=O)c4ccc(F)cc4)cc32)cc1Br (stereo not drawn)    5.22
COc1c(Br)cc(CC2NCCc3cc(O)c(NS(=O)(=O)c4ccc(C(F)(F)F)cc4)cc32)cc1Br (stereo not drawn)    29.2
COc1c(Br)cc(CC2NCCc3cc(O)c(NS(=O)(=O)c4ccc(OC(F)(F)F)cc4)cc32)cc1Br (stereo not drawn)    80.3
COc1c(Br)cc(CC2NCCc3cc(O)c(NS(=O)(=O)c4ccc(C)cc4)cc32)cc1Br (stereo not drawn)    8.46
COc1c(I)cc(CC2NCCc3cc(O)c(NS(=O)(=O)c4ccc(C)cc4)cc32)cc1I (stereo not drawn)    2.9
CCS(=O)(=O)Nc1cc2c(cc1O)CCNC2Cc1cc(Br)c(OC)c(Br)c1 (stereo not drawn)    1.51
COc1ccc(S(=O)(=O)Nc2cc3c(cc2O)CCNC3Cc2cc(Br)c(OC)c(Br)c2)cc1 (stereo not drawn)    8.09
COc1c(Br)cc(CC2NCCc3cc(O)c(NS(=O)(=O)c4ccccc4)cc32)cc1Br (stereo not drawn)    35.3
